# EXPERIMENTAL_SYSTEM: T1, murine CD22 protein (ACROBiosystems, SI2-M52Ha) (murine, UniProt P35329 22-708)
# T1 construct: extracellular domain; also called murine CD22-ECD; murine CD22-ECD-His
# T1 sequence (looked up): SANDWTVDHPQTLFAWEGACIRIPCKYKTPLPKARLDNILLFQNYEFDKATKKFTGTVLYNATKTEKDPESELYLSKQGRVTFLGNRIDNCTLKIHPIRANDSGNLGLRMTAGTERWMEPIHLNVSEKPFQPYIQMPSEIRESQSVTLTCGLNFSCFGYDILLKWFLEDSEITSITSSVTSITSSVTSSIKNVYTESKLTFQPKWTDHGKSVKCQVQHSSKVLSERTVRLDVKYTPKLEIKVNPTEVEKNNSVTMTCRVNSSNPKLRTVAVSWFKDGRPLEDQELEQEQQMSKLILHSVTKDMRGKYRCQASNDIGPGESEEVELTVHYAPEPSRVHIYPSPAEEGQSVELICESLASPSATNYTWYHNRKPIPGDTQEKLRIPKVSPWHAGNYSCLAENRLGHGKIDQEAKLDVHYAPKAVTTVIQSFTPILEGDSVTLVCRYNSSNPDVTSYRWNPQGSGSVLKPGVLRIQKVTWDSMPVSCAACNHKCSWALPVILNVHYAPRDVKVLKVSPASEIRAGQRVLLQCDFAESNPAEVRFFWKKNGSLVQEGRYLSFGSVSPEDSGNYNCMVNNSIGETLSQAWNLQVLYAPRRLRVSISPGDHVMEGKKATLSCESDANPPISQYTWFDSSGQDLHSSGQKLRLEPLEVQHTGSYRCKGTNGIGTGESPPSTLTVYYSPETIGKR
# PROTOCOL_SUMMARY: ELISA, coated murine CD22, 0.00001 nM Ab

{"columns": ["BINDER", "OD450"],
 "data": [
  ["F2.104.10 human-murine chimeric antibody (antibody, human IgG1, lambda, V domains shown, Chimeric, human IgG1 / lambda) VH: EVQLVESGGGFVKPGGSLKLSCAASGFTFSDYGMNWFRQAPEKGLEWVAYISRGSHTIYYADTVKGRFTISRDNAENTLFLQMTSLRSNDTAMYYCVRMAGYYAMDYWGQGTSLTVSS VL: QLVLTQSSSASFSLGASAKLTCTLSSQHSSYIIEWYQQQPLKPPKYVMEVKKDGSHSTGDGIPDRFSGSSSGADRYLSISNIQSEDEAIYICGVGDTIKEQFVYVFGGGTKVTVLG", "0.05 OD450"],
  ["F1.280.1 human-murine chimeric antibody (antibody, human IgG1, kappa, V domains shown, Chimeric, human IgG1 / kappa) VH: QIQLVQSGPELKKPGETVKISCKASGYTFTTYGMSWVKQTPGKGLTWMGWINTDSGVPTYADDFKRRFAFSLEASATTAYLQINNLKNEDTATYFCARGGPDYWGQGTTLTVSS VL: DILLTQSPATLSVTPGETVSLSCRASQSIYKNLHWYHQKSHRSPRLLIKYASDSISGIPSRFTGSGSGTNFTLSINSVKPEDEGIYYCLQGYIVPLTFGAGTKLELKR", "0.06 OD450"],
  ["F1.105.11 human-murine chimeric antibody (antibody, human IgG1, kappa, V domains shown, Chimeric, human IgG1 / kappa; VL tied by name) VH: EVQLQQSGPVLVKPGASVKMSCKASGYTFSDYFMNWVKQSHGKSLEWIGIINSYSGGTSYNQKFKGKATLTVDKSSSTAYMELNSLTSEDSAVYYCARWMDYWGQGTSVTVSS VL: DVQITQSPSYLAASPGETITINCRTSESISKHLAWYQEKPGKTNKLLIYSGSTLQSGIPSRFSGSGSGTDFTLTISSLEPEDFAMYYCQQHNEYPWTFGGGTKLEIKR", "0.05 OD450"]
]}

Source of measurements: patent US20240084003A1
